Recorded values, source patent US11472778B2.

target: GT1a R155K NS3/4A protease (UniProt P27958, R1181K, species not given); type: biochemical, Hepatitis C virus; conditions: read-out: Ki (nM) R155K; Table 8; linear inhibitors
recorded-endpoint: Ki (nM)

| molecule | recorded-number |
| --- | --- |
| C=C[C@@H]1C[C@]1(NC(=O)[C@@H]1C[C@@H](Oc2nc3cc(OC)ccc3nc2CC)CN1C(=O)[C@@H](NC(=O)OC1CCCC1)C(C)(C)C)C(=O)NS(=O)(=O)C1CC1 [Compound 11a] | 15 |
| C=C[C@@H]1C[C@]1(NC(=O)[C@@H]1C[C@@H](Oc2nc3cc(OC)ccc3nc2C(C)C)CN1C(=O)[C@@H](NC(=O)OC1CCCC1)C(C)(C)C)C(=O)NS(=O)(=O)C1CC1 [Compound 11c] | 55 |
| C=C[C@@H]1C[C@]1(NC(=O)[C@@H]1C[C@@H](Oc2nc3cc(OC)ccc3nc2Cl)CN1C(=O)[C@@H](NC(=O)OC1CCCC1)C(C)(C)C)C(=O)NS(=O)(=O)C1(C)CC1 [Compound 12d] | 5.2 |

###

Ki values for the molecules below.
biological target: wild-type GT1a NS3/4A protease (UniProt P27958); construct: Ki WT; other: wild-type HCV NS3/4A protease; assay type: biochemical, Hepatitis C virus; conditions: read-out: Ki (nM) WT; Table 8; linear inhibitors
recorded-endpoint: Ki (nM)

| molecule | uom | recorded-number |
| --- | --- | --- |
| C=C[C@@H]1C[C@]1(NC(=O)[C@@H]1C[C@@H](Oc2nc3cc(OC)ccc3nc2C(F)(F)F)CN1C(=O)[C@@H](NC(=O)OC(C)(C)C)C(C)(C)C)C(=O)NS(=O)(=O)C1CC1 | nM | 87 |
| CCc1nc2ccc(OC)cc2nc1O[C@@H]1C[C@H]2C(=O)N[C@]3(C(=O)NS(=O)(=O)C4CC4)C[C@H]3/C=C\CCCCC[C@H](NC(=O)OC(C)(C)C)C(=O)N2C1 | nM | 2 |
| C=C[C@@H]1C[C@]1(NC(=O)[C@@H]1C[C@@H](Oc2nc3cc(OC)ccc3nc2C(C)C)CN1C(=O)[C@@H](NC(=O)OC1CCCC1)C(C)(C)C)C(=O)NS(=O)(=O)C1(C)CC1 [Compound 12c] | nM | 21 |
| C=C[C@@H]1C[C@]1(NC(=O)[C@@H]1C[C@@H](Oc2nc3cc(OC)ccc3nc2C(F)(F)F)CN1C(=O)[C@@H](NC(=O)OC(C)(C)C)C(C)(C)C)C(=O)NS(=O)(=O)C1(C)CC1 [Compound 10e] | nM | 46 |

###

tested on: HCV replicon R155K variant in Huh7 cells; test: microbe, parasite or virus in culture; assay type: cell-based, Hepatitis C virus; settings: Hepatitis C virus, Huh-7, read-out: Replicon EC50 (nM) R155K, Table 4
EC50 overview

| compound | target-entity | uom | EC50 |
| --- | --- | --- | --- |
| COc1ccc2nc(C(C)C)c(O[C@@H]3C[C@H]4C(=O)N[C@]5(C(=O)NS(=O)(=O)C6CC6)C[C@H]5/C=C\CCCCC[C@H](NC(=O)OC(C)(C)C)C(=O)N4C3)nc2c1 [Compound 18e] | HCV replicon R155K variant in Huh7 cells | nM | 5.02 |
| O=C(N[C@H]1CCCCC/C=C\[C@@H]2C[C@@]2(C(=O)NS(=O)(=O)C2CC2)NC(=O)[C@@H]2C[C@@H](Oc3nc4ccccc4nc3-c3cccs3)CN2C1=O)OC1CCCC1 [Compound 22f] | HCV replicon R155K variant in Huh7 cells | nM | 19.2 |
| COc1ccc2nc(C(C)C)c(O[C@@H]3C[C@H]4C(=O)N[C@]5(C(=O)NS(=O)(=O)C6(C)CC6)C[C@H]5/C=C\CCCCC[C@H](NC(=O)OC(C)(C)C)C(=O)N4C3)nc2c1 [Compound 19e] | HCV replicon R155K variant in Huh7 cells | nM | 4.14 |
| COc1ccc2nc(C(F)(F)F)c(O[C@@H]3C[C@H]4C(=O)N[C@]5(C(=O)NS(=O)(=O)C6CC6)C[C@H]5/C=C\CCCCC[C@H](NC(=O)OC(C)(C)C)C(=O)N4C3)nc2c1 [Compound 18d] | HCV replicon R155K variant in Huh7 cells | nM | 3.45 |
| COc1ccc2nc(C)c(O[C@@H]3C[C@H]4C(=O)N[C@]5(C(=O)NS(=O)(=O)C6(C)CC6)C[C@H]5/C=C\CCCCC[C@H](NC(=O)OC(C)(C)C)C(=O)N4C3)nc2c1 [Compound 19b] | HCV replicon R155K variant in Huh7 cells | nM | 0.8 |
| CCc1nc2ccc(OC)cc2nc1O[C@@H]1C[C@H]2C(=O)N[C@]3(C(=O)NS(=O)(=O)C4CC4)C[C@H]3/C=C\CCCCC[C@H](NC(=O)OC3CCCC3)C(=O)N2C1 [Compound 22a] | HCV replicon R155K variant in Huh7 cells | nM | 2.08 |

###

molecular target: GT1a D168A NS3/4A protease; assay type: biochemical, Hepatitis C virus; conditions: fold change in Ki, D168A relative to WT
Reported Ki D168A (fold change) is given for each of the following compounds.
recorded-endpoint: Ki D168A (fold change)

| compound | recorded-endpoint | recorded-number |
| --- | --- | --- |
| C=C[C@@H]1C[C@]1(NC(=O)[C@@H]1C[C@@H](Oc2nc3cc(OC)ccc3nc2CC)CN1C(=O)[C@@H](NC(=O)OC1CCCC1)C(C)(C)C)C(=O)NS(=O)(=O)C1(C)CC1 [Compound 12a] | Ki D168A (fold change) | 21 |
| C=C[C@@H]1C[C@]1(NC(=O)[C@@H]1C[C@@H](Oc2nc3cc(OC)ccc3nc2C)CN1C(=O)[C@@H](NC(=O)OC1CCCC1)C(C)(C)C)C(=O)NS(=O)(=O)C1(C)CC1 [Compound 12b] | Ki D168A (fold change) | 20 |
| C=C[C@@H]1C[C@]1(NC(=O)[C@@H]1C[C@@H](Oc2nc3cc(OC)ccc3nc2Cl)CN1C(=O)[C@@H](NC(=O)OC1CCCC1)C(C)(C)C)C(=O)NS(=O)(=O)C1CC1 [Compound 11d] | Ki D168A (fold change) | 26 |
| C=C[C@@H]1C[C@]1(NC(=O)[C@@H]1C[C@@H](Oc2nc3cc(OC)ccc3nc2C)CN1C(=O)[C@@H](NC(=O)OC(C)(C)C)C(C)(C)C)C(=O)NS(=O)(=O)C1CC1 | Ki D168A (fold change) | 16 |

###

molecular target: GT1a D168A NS3/4A protease (UniProt P27958, C1185S/D1194A, species not given); construct: Ki (nM) GT1a D168A NS3/4A Protease; format: biochemical, Hepatitis C virus; conditions: read-out: Ki (nM) GT1a D168A NS3/4A Protease; Table 3
Quick list: Ki per entry.

| compound | Ki / nM |
| --- | --- |
| COc1ccc2nc(C)c(O[C@@H]3C[C@H]4C(=O)N[C@]5(C(=O)NS(=O)(=O)C6CC6)C[C@H]5/C=C\CCCCC[C@H](NC(=O)OC5CCCC5)C(=O)N4C3)nc2c1 [Compound 22b] | 31.9 |
| CCc1nc2ccc(OC)cc2nc1O[C@@H]1C[C@H]2C(=O)N[C@]3(C(=O)NS(=O)(=O)C4(C)CC4)C[C@H]3/C=C\CCCCC[C@H](NC(=O)OC3CCCC3)C(=O)N2C1 [Compound 23a] | 55.2 |
| COc1ccc2nc(Cl)c(O[C@@H]3C[C@H]4C(=O)N[C@]5(C(=O)NS(=O)(=O)C6(C)CC6)C[C@H]5/C=C\CCCCC[C@H](NC(=O)OC(C)(C)C)C(=O)N4C3)nc2c1 [Compound 19c] | 77.7 |
| COc1ccc2nc(C(F)(F)F)c(O[C@@H]3C[C@H]4C(=O)N[C@]5(C(=O)NS(=O)(=O)C6CC6)C[C@H]5/C=C\CCCCC[C@H](NC(=O)OC5CCCC5)C(=O)N4C3)nc2c1 [Compound 22d] | 115 |

###

target: wild-type GT1a NS3/4A protease (UniProt P27958, C1185S, species not given); construct: Ki (nM) GT1a WT NS3/4A Protease; assay type: biochemical, Hepatitis C virus; conditions: read-out: Ki (nM) GT1a WT NS3/4A Protease; Table 3

| compound | Ki |
| --- | --- |
| CCc1nc2ccc(OC)cc2nc1O[C@@H]1C[C@H]2C(=O)N[C@]3(C(=O)NS(=O)(=O)C4(C)CC4)C[C@H]3/C=C\CCCCC[C@H](NC(=O)OC(C)(C)C)C(=O)N2C1 [Compound 19a] | 1.82 nM |
| COc1ccc2nc(Cl)c(O[C@@H]3C[C@H]4C(=O)N[C@]5(C(=O)NS(=O)(=O)C6(C)CC6)C[C@H]5/C=C\CCCCC[C@H](NC(=O)OC(C)(C)C)C(=O)N4C3)nc2c1 [Compound 19c] | 1.11 nM |
| COc1ccc2nc(C(F)(F)F)c(O[C@@H]3C[C@H]4C(=O)N[C@]5(C(=O)NS(=O)(=O)C6(C)CC6)C[C@H]5/C=C\CCCCC[C@H](NC(=O)OC(C)(C)C)C(=O)N4C3)nc2c1 [Compound 19d] | 5.77 nM |
| COc1ccc2nc(C)c(O[C@@H]3C[C@H]4C(=O)N[C@]5(C(=O)NS(=O)(=O)C6(C)CC6)C[C@H]5/C=C\CCCCC[C@H](NC(=O)OC5CCCC5)C(=O)N4C3)nc2c1 [Compound 23b] | 1.13 nM |
